molecular target: T1, HLA-A2/E7 (11-19) tetramer (human; HPV 16); test: tetramer flow cytometry; transfected 1:1 CD4+ and CD4+/CD8+ Jurkat-derived cells;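 further: cells transiently transfected with TCR plasmids, stained 48 h later with HLA-A*02:01 peptide-MHC tetramer plus anti-CD8 antibody, read by flow cytometry to assess CD8-independent tetramer binding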
T1 construct: also called E7(11-19) peptide-MHC tetramer; E7 (11-19)-loaded tetramer
One threshold, 40%, splits the recorded % cells in E7 tet-/CD8- quadrant values: lower ones are yes (1), equal or higher ones are no (0).

Solved entries (count: 4):
{"columns": ["Binder", "Label Value"],
 "data": [
  ["TCR 32 (codon optimized, cysteine modified version) (TCR, V domains shown) V domain 1: TQLLEQSPQFLSIQEGENLTVYCNSSSVFSSLQWYRQEPGEGPVLLVTVVTGGEVKKLKRLTFQFGDARKDSSLHITAAQPGDTGLYLCAGGSNYKLTFGKGTLLTVNP V domain 2: DSGVTQTPKHLITATGQRVTLRCSPRSGDLSVYWYQQSLDQGLQFLIQYYNGEERAKGNILERFSAQQFPDLHSELNLSSLELGDSALYFCASSVGGDHSDEQFFGPGTRLTVLE", "yes (1)"],
  ["TCR 37 (codon optimized, cysteine modified version) (TCR, V domains shown) V domain 1: ELKVEQNPLFLSMQEGKNYTIYCNYSTTSDRLYWYRQDPGKSLESLFVLLSNGAVKQEGRLMASLDTKARLSTLHITAAVHDLSATYFCAGYSGAGSYQLTFGKGTKLSVIP V domain 2: GAGVSQSPRYKVAKRGQDVALRCDPISGHVSLFWYQQALGQGPEFLTYFQNEAQLDKSGLPSDRFFAERPEGSVSTLKIQRTQQEDSAVYLCASSLLLGAYGYTFGSGTRLTVVE", "yes (1)"],
  ["TCR 39 (codon optimized, cysteine modified version) (TCR, V domains shown) V domain 1: GQQLNQSPQSMFIQEGEDVSMNCTSSSIFNTWLWYKQEPGEGPVLLIALYKAGELTSNGRLTAQFGITRKDSFLNISASIPSDVGIYFCAGYSSSNDYKLSFGAGTTVTVRA V domain 2: EPEVTQTPSHQVTQMGQEVILRCVPISNHLYFYWYRQILGQKVEFLVSFYNNEISEKSEIFDDQFSVERPDGSNFTLKIRSTKLEDSAMYFCASTPRDRGKEAFFGQGTRLTVVE", "no (0)"],
  ["TCR 43 (codon optimized, cysteine modified version) (TCR, V domains shown) V domain 1: QKEVEQNSGPLSVPEGAIASLNCTYSDRGSQSFFWYRQYSGKSPELIMFIYSNGDKEDGRFTAQLNKASQYVSLLIRDSQPSDSATYLCAVNVPTSGTYKYIFGTGTRLKVLA V domain 2: EPEVTQTPSHQVTQMGQEVILRCVPISNHLYFYWYRQILGQKVEFLVSFYNNEISEKSEIFDDQFSVERPDGSNFTLKIRSTKLEDSAMYFCASTPRDSYEQYFGPGTRLTVTE", "no (0)"]
]}

We now examine a further binder.
Exercise: Strictly below 40% in % cells in E7 tet-/CD8- quadrant? TCR 35 (codon optimized, cysteine modified version) (TCR, V domains shown) V domain 1: KDQVFQPSTVASSEGAVVEIFCNHSVSNAYNFFWYLHFPGCAPRLLVKGSKPSQQGRYNMTYERFSSSLLILQVREADAAVYYCAVAGDYKLSFGAGTTVTVRA V domain 2: DSGVTQTPKHLITATGQRVTLRCSPRSGDLSVYWYQQSLDQGLQFLIQYYNGEERAKGNILERFSAQQFPDLHSELNLSSLELGDSALYFCASTTSGDSSYNEQFFGPGTRLTVLE
Key: no (0)
